Taken from patent US20120083522A1.

protocol.notes: Cynomolgus monkeys: hematology assays (Example 29)
Type: in vivo
assay.context: day −5
In the oligonucleotide strings, read from the 5' end, every base follows the letter of its sugar. An asterisk marks phosphorothioate; unmarked linkages are phosphodiester. Other units and linkages are bracketed, terminal groups are in braces. A string of capitals states the bases alone. e = 2'-O-(2-methoxyethyl) (MOE); [5mC] = 5-methylcytosine; d = 2'-deoxy (DNA)
So I've got a bunch of substances here, and I need their platelet count values.
Give your result in µL⁻¹ as a bare value.

Prompt: For the substance ISIS 416864: gapmer of Table 8 (antisense eG*eG*e[5mC]*eA*eG*d[5mC]*dG*dG*dA*d[5mC]*dG*dG*d[5mC]*dA*dT*eT*eG*eG*eT*eG) , what platelet count is on record?
Response: 456000

Prompt: For the substance ISIS 416858: gapmer of Table 8 (antisense eA*e[5mC]*eG*eG*e[5mC]*dA*dT*dT*dG*dG*dT*dG*d[5mC]*dA*d[5mC]*eA*eG*eT*eT*eT) , what platelet count is on record?
Response: 463000

Prompt: For the substance ISIS 416850: gapmer of Table 8 (antisense eT*eG*e[5mC]*eA*e[5mC]*dA*dG*dT*dT*dT*d[5mC]*dT*dG*dG*d[5mC]*eA*eG*eG*e[5mC]*e[5mC]) , what platelet count is on record?
Response: 573000

Prompt: For the substance ISIS 416838: gapmer of Table 6 (antisense eG*e[5mC]*eA*eA*e[5mC]*d[5mC]*dG*dG*dG*dA*dT*dG*dA*dT*dG*eA*eG*eT*eG*e[5mC]) , what platelet count is on record?
Response: 425000

Prompt: For the substance ISIS 417002: gapmer of Table 8 (antisense eG*eG*dT*dG*d[5mC]*dA*d[5mC]*dA*dG*dT*dT*dT*d[5mC]*dT*dG*eG*e[5mC]*eA*eG*eG) , what platelet count is on record?
Response: 466000

###

Tested on: human Factor XI mRNA
protocol.notes: Dose-dependent inhibition in HepB3 cells, electroporation (Example 7)
Assay type: cell-based
assay.context: 10000 nM, approx. 16 h
measurement.label: percent inhibition of human Factor XI mRNA (%)
Give your result in % as a bare value.

Prompt: // fetch human Factor XI mRNA percent inhibition of human Factor XI mRNA for 416858 (antisense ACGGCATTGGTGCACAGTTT; 5-10-5 gapmer, wing sugar chemistry not given here, further chemistry not given here) [compound 416858]
Response: 92

Prompt: // fetch human Factor XI mRNA percent inhibition of human Factor XI mRNA for 416892 (antisense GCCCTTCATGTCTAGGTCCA; 3-14-3 chimeric gapmer, wing sugar chemistry not given here, further chemistry not given here) [compound 416892]
Response: 98

Prompt: // fetch human Factor XI mRNA percent inhibition of human Factor XI mRNA for 416838 (antisense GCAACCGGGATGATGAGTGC; 5-10-5 gapmer, wing sugar chemistry not given here, further chemistry not given here) [compound 416838]
Response: 88

Prompt: // fetch human Factor XI mRNA percent inhibition of human Factor XI mRNA for 416925 (antisense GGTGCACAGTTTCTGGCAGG; 3-14-3 chimeric gapmer, wing sugar chemistry not given here, further chemistry not given here) [compound 416925]
Response: 96

Prompt: // fetch human Factor XI mRNA percent inhibition of human Factor XI mRNA for 416825 (antisense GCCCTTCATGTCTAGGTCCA; 5-10-5 gapmer, wing sugar chemistry not given here, further chemistry not given here) [compound 416825]
Response: 92

Prompt: // fetch human Factor XI mRNA percent inhibition of human Factor XI mRNA for 417003 (antisense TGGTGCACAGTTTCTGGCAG; 2-13-5 gapmer, wing sugar chemistry not given here, further chemistry not given here) [compound 417003]
Response: 92

###

protocol.notes: Tolerability in Sprague-Dawley rats: body and organ weight (Example 19)
Format: in vivo
assay.context: 50 mg/kg s.c. twice per week for 6 weeks, change over weight at start of study
Source text: Urine samples were taken before the start of treatment. The body weights are presented in Table 78 and are expressed as a percent change over the weights taken at the start of the study.
So I've got a bunch of substances here, and I need their Percent change in Body weight values.
Give your result in % as a bare value.

Prompt: For the substance 416825 (antisense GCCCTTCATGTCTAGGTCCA; 5-10-5 gapmer, wing sugar chemistry not given here, further chemistry not given here) [compound 416825] , what Percent change in Body weight is on record?
Response: −18

Prompt: For the substance 416925 (antisense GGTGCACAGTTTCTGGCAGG; 3-14-3 chimeric gapmer, wing sugar chemistry not given here, further chemistry not given here) [compound 416925] , what Percent change in Body weight is on record?
Response: −32

Prompt: For the substance 416838 (antisense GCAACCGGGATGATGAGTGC; 5-10-5 gapmer, wing sugar chemistry not given here, further chemistry not given here) [compound 416838] , what Percent change in Body weight is on record?
Response: −23

Prompt: For the substance 416999 (antisense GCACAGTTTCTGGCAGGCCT; 2-13-5 gapmer, wing sugar chemistry not given here, further chemistry not given here) [compound 416999] , what Percent change in Body weight is on record?
Response: −37

Prompt: For the substance 417003 (antisense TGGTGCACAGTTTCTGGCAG; 2-13-5 gapmer, wing sugar chemistry not given here, further chemistry not given here) [compound 417003] , what Percent change in Body weight is on record?
Response: −40

Prompt: For the substance 416826 (antisense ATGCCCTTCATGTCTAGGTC; 5-10-5 gapmer, wing sugar chemistry not given here, further chemistry not given here) [compound 416826] , what Percent change in Body weight is on record?
Response: −40

###

So I've got a bunch of substances here, and I need their % inhibition of human Factor XI mRNA levels values.
Test system: human Factor XI mRNA
protocol.notes: Antisense inhibition in HepG2 cells by microwalk gapmers, 75 nM, lipofectin (Example 3)
Type: cell-based
assay.context: HepG2 cells, 75 nM, oligonucleotides targeted to nucleobases 1275 to 1318 of SEQ ID NO: 1
In the oligonucleotide strings, read from the 5' end, every base follows the letter of its sugar. An asterisk marks phosphorothioate; unmarked linkages are phosphodiester. Other units and linkages are bracketed, terminal groups are in braces. A string of capitals states the bases alone. e = 2'-O-(2-methoxyethyl) (MOE); [5mC] = 5-methylcytosine; d = 2'-deoxy (DNA)

Prompt: For the substance 416926 (antisense eT*eG*eG*dT*dG*d[5mC]*dA*d[5mC]*dA*dG*dT*dT*dT*d[5mC]*dT*dG*dG*e[5mC]*eA*eG) [compound 416926] , what % inhibition of human Factor XI mRNA levels is on record?
Response: 93%

Prompt: For the substance 416923 (antisense eT*eG*e[5mC]*dA*d[5mC]*dA*dG*dT*dT*dT*d[5mC]*dT*dG*dG*d[5mC]*dA*dG*eG*e[5mC]*e[5mC]) [compound 416923] , what % inhibition of human Factor XI mRNA levels is on record?
Response: 96%

Prompt: For the substance 416863 (antisense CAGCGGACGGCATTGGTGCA; 5-10-5 gapmer, wing sugar chemistry not given here, further chemistry not given here) [compound 416863] , what % inhibition of human Factor XI mRNA levels is on record?
Response: 83%

Prompt: For the substance 416860 (antisense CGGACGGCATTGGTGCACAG; 5-10-5 gapmer, wing sugar chemistry not given here, further chemistry not given here) [compound 416860] , what % inhibition of human Factor XI mRNA levels is on record?
Response: 88%

Prompt: For the substance 416861 (antisense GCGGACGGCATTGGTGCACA; 5-10-5 gapmer, wing sugar chemistry not given here, further chemistry not given here) [compound 416861] , what % inhibition of human Factor XI mRNA levels is on record?
Response: 92%

###

Test system: human Factor XI mRNA
protocol.notes: Dose-dependent inhibition in HepG2 cells, electroporation (Example 4)
Type: cell-based
assay.context: 2.2 μM, 16 hours
In the oligonucleotide strings, read from the 5' end, every base follows the letter of its sugar. An asterisk marks phosphorothioate; unmarked linkages are phosphodiester. Other units and linkages are bracketed, terminal groups are in braces. A string of capitals states the bases alone. e = 2'-O-(2-methoxyethyl) (MOE); [5mC] = 5-methylcytosine; d = 2'-deoxy (DNA)
So I've got a bunch of substances here, and I need their percent inhibition of Factor XI mRNA, relative to untreated control cells values.
Give your result in % as a bare value.

Prompt: // fetch human Factor XI mRNA percent inhibition of Factor XI mRNA, relative to untreated control cells for 416925 (antisense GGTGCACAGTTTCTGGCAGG; 3-14-3 chimeric gapmer, wing sugar chemistry not given here, further chemistry not given here) [compound 416925]
Response: 40

Prompt: // fetch human Factor XI mRNA percent inhibition of Factor XI mRNA, relative to untreated control cells for 416941 (antisense eG*eG*e[5mC]*dA*dG*d[5mC]*dG*dG*dA*d[5mC]*dG*dG*d[5mC]*dA*dT*dT*dG*eG*eT*eG) [compound 416941]
Response: 38

Prompt: // fetch human Factor XI mRNA percent inhibition of Factor XI mRNA, relative to untreated control cells for 416922 (antisense eG*e[5mC]*eA*d[5mC]*dA*dG*dT*dT*dT*d[5mC]*dT*dG*dG*d[5mC]*dA*dG*dG*e[5mC]*e[5mC]*eT) [compound 416922]
Response: 51

Prompt: // fetch human Factor XI mRNA percent inhibition of Factor XI mRNA, relative to untreated control cells for 417003 (antisense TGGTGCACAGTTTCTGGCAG; 2-13-5 gapmer, wing sugar chemistry not given here, further chemistry not given here) [compound 417003]
Response: 34

Prompt: // fetch human Factor XI mRNA percent inhibition of Factor XI mRNA, relative to untreated control cells for 416842 (antisense eT*eG*eA*eG*eA*dT*dT*d[5mC]*dT*dT*dT*dG*dG*dG*d[5mC]*e[5mC]*eA*eT*eT*e[5mC]) [compound 416842]
Response: 10

Prompt: // fetch human Factor XI mRNA percent inhibition of Factor XI mRNA, relative to untreated control cells for 413467 (antisense eG*eG*eT*e[5mC]*e[5mC]*dA*d[5mC]*dA*dT*dA*dA*dA*dT*dG*dT*e[5mC]*eT*eT*eT*eG) [compound 413467]
Response: 31

Prompt: // fetch human Factor XI mRNA percent inhibition of Factor XI mRNA, relative to untreated control cells for 416926 (antisense eT*eG*eG*dT*dG*d[5mC]*dA*d[5mC]*dA*dG*dT*dT*dT*d[5mC]*dT*dG*dG*e[5mC]*eA*eG) [compound 416926]
Response: 71

Prompt: // fetch human Factor XI mRNA percent inhibition of Factor XI mRNA, relative to untreated control cells for 416969 (antisense eG*e[5mC]*d[5mC]*d[5mC]*dT*dT*d[5mC]*dA*dT*dG*dT*d[5mC]*dT*dA*dG*eG*eT*e[5mC]*e[5mC]*eA) [compound 416969]
Response: 34

Prompt: // fetch human Factor XI mRNA percent inhibition of Factor XI mRNA, relative to untreated control cells for 416908 (antisense eG*e[5mC]*eA*dA*d[5mC]*d[5mC]*dG*dG*dG*dA*dT*dG*dA*dT*dG*dA*dG*eT*eG*e[5mC]) [compound 416908]
Response: 58

Prompt: // fetch human Factor XI mRNA percent inhibition of Factor XI mRNA, relative to untreated control cells for 416895 (antisense eT*eA*eT*dG*d[5mC]*d[5mC]*d[5mC]*dT*dT*d[5mC]*dA*dT*dG*dT*d[5mC]*dT*dA*eG*eG*eT) [compound 416895]
Response: 62

Prompt: // fetch human Factor XI mRNA percent inhibition of Factor XI mRNA, relative to untreated control cells for 416923 (antisense eT*eG*e[5mC]*dA*d[5mC]*dA*dG*dT*dT*dT*d[5mC]*dT*dG*dG*d[5mC]*dA*dG*eG*e[5mC]*e[5mC]) [compound 416923]
Response: 30

Prompt: // fetch human Factor XI mRNA percent inhibition of Factor XI mRNA, relative to untreated control cells for 416838 (antisense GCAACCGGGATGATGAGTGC; 5-10-5 gapmer, wing sugar chemistry not given here, further chemistry not given here) [compound 416838]
Response: 30
